GI50 overview
Tested on: SN12C renal
Assay: NCI tumour cell line growth inhibition, 48 h
readout name: GI50

[[record]]
molecule = "COc1cc2c(cc1OCCCN1CCN(CCCOc3cc4c(cc3OC)C(=O)N3CC(F)(F)C[C@H]3C=N4)CC1)N=C[C@@H]1CC(F)(F)CN1C2=O"
result = "4.05 µM"

[[record]]
molecule = "CCOC(=O)c1c(C)c2c(n1Cc1ccccc1)CSCC2=O"
result = "26 µM"

[[record]]
molecule = "COc1cc(/C=C2\\CCCCC3=C2N=C2SC(C)=CN2C3c2cc(OC)c(OC)c(OC)c2)cc(OC)c1OC (stereo not drawn)"
result = "61.8 µM"


* * *

System: MDA-N
Assay: NCI tumour cell line growth inhibition, 48 h
readout name: TGI

[[record]]
molecule = "O=c1onc2n1-c1cc(Cl)ccc1C(=S)N1CSCC21 (stereo unspecified)"
study_target = "MDA-N"
result = "> 100 µM"

[[record]]
molecule = "Cc1cc(C(=O)CSC(=S)SC(C)(C)C)ccc1Cl"
study_target = "MDA-N"
result = "36.8 µM"

[[record]]
molecule = "O=C1/C(=C/c2ccc(Cl)cc2)CCCc2ccccc21"
study_target = "MDA-N"
result = "33.3 µM"

[[record]]
molecule = "CC(C)=CCC1=C(O)c2ccccc2C(=O)C1=O"
study_target = "MDA-N"
result = "> 100 µM"

[[record]]
molecule = "COc1c2occc2c(N)c2ccc(=O)oc12"
study_target = "MDA-N"
result = "> 100 µM"

[[record]]
molecule = "Cc1cc(OP2(=O)NCc3ncccc3O2)ccc1Cl (stereo unspecified)"
study_target = "MDA-N"
result = "> 100 µM"

[[record]]
molecule = "CCN(CC)c1ccc(/C=C/c2ccnc3ccccc23)cc1"
study_target = "MDA-N"
result = "> 100 µM"

[[record]]
molecule = "C=C(C)[C@H]1C2=CC(C(=O)OC)=C(C[C@H](C(=C)C)[C@@H](O)[C@@H](O)C3=C[C@H]1OC3=O)O2"
study_target = "MDA-N"
result = "> 100 µM"

[[record]]
molecule = "CC1=C(C#N)c2nc3ccccc3n2C(=O)C1(C)CCO (stereo unspecified)"
study_target = "MDA-N"
result = "> 100 µM"

[[record]]
molecule = "O=[N+]([O-])c1cccnc1N=Nc1c(O)[nH]c2ccccc12"
study_target = "MDA-N"
result = "> 100 µM"

[[record]]
molecule = "CN1CC[C@]2(c3cccc(O)c3)CC(=O)/C(=C/c3ccccc3)[C@@H]1C2"
study_target = "MDA-N"
result = "3.94 µM"


* * *

System: MCF7 breast
Experiment: NCI tumour cell line growth inhibition, 48 h
TGI overview
readout name: TGI

[[record]]
compound = "CCOC(=O)c1c(C)c2c(n1Cc1ccccc1)CSCC2=O"
readout_name = "TGI"
result = "44.7 µM"

[[record]]
compound = "CCN(C(=O)N[C@@H](C)C(=O)N[C@@H](Cc1ccccc1)C(=O)OC)c1ccccc1"
readout_name = "TGI"
result = "> 100 µM"

[[record]]
compound = "CCN(Cc1c(F)cccc1OC)c1ccc(CO)c(Cl)c1"
readout_name = "TGI"
result = "16.1 µM"

[[record]]
compound = "CCOC(=O)CC/C(=N/Nc1ccc(Cl)cc1[N+](=O)[O-])C(=O)OCC"
readout_name = "TGI"
result = "> 100 µM"

[[record]]
compound = "C[C@@H]1CCC2[C@@H](C)[C@@H](O[C@H]3O[C@@H]4O[C@@]5(C)CCC6[C@H](C)CCC([C@H]3C)[C@]64OO5)O[C@@H]3O[C@@]4(C)CCC1[C@@]23OO4 (some centres undefined)"
readout_name = "TGI"
result = "> 25 µM"

[[record]]
compound = "CCOC(=O)C(NC(=O)CC)(N1CCN(c2cc3c(cc2F)c(=O)c(C(=O)O)cn3C2CC2)CC1)C(F)(F)F (centres undefined)"
readout_name = "TGI"
result = "> 100 µM"

[[record]]
compound = "CCCCOCCOC1=C(Cl)C(=O)c2c(O)ccc(O)c2C1=O"
readout_name = "TGI"
result = "2.04 µM"

[[record]]
compound = "CCN(CC)c1ccc(/C=C/c2ccnc3ccccc23)cc1"
readout_name = "TGI"
result = "> 100 µM"

[[record]]
compound = "CSc1nc2c(c(N(C)C)n1)C(O)n1c(nc3ccccc31)S2 (centres undefined)"
readout_name = "TGI"
result = "> 100 µM"

[[record]]
compound = "c1ccc(C2=NOC(c3ccccc3)N2C23CC4CC(CC(C4)C2)C3)cc1 (centres undefined)"
readout_name = "TGI"
result = "> 10 µM"

[[record]]
compound = "NCCCn1c2c(c3ccc([N+](=O)[O-])cc3c1=O)C(=O)c1cc(I)ccc1-2"
readout_name = "TGI"
result = "0.517 µM"

[[record]]
compound = "OC(C#CCN1CCCC1)(c1ccccc1)c1ccccc1Cl (centres undefined)"
readout_name = "TGI"
result = "32.9 µM"

[[record]]
compound = "Cc1cc(C)nc(NC(=S)Nc2ccc([N+](=O)[O-])cc2)c1"
readout_name = "TGI"
result = "> 100 µM"

[[record]]
compound = "COC(=O)c1c(C)cc(OC)c(C/C=C(\\C)CCCc2coc(C=C(C)C)c2)c1OC"
readout_name = "TGI"
result = "> 100 µM"

[[record]]
compound = "C/C1=C\\[C@H](C)C[C@H](C)OC(=O)[C@H](C)NC(=O)[C@@H](Cc2ccc(O)c(Br)c2)N(C)C(=O)[C@H](C)NC(=O)[C@@H](C)C1"
readout_name = "TGI"
result = "> 25 µM"

[[record]]
compound = "COc1ccc(CNc2c3ccccc3nc3ccccc23)cc1F"
readout_name = "TGI"
result = "5.4 µM"

[[record]]
compound = "Nc1ncc2c(n1)-c1ccccc1OC2N1CCCC1 (centres undefined)"
readout_name = "TGI"
result = "> 100 µM"

[[record]]
compound = "O=C(Nc1nc(-c2c[nH]c3ccccc23)cs1)c1n[nH]c(=O)c2ccccc12"
readout_name = "TGI"
result = "> 100 µM"

[[record]]
compound = "COc1cc2c(cc1OCCCN1CCN(CCCOc3cc4c(cc3OC)C(=O)N3CC(F)(F)C[C@H]3C=N4)CC1)N=C[C@@H]1CC(F)(F)CN1C2=O"
readout_name = "TGI"
result = "20.2 µM"


* * *

Tested on: SW-620 colon
Experiment: NCI tumour cell line growth inhibition, 48 h
TGI overview
readout name: TGI

[[record]]
compound = "O=c1onc2n1-c1cc(Cl)ccc1C(=S)N1CSCC21 (centres undefined)"
readout_name = "TGI"
result = "> 100 µM"

[[record]]
compound = "O=C(c1ccccc1)c1ccc2c(c1)NC(=O)c1ccccc1SSc1ccccc1C(=O)N2"
readout_name = "TGI"
result = "> 100 µM"

[[record]]
compound = "CC(C)Oc1cccc(N2C(=NCc3c[nH]c4ccccc34)Nc3ccncc3S2(=O)=O)c1"
readout_name = "TGI"
result = "> 100 µM"

[[record]]
compound = "CNc1nncc2[nH]cnc12"
readout_name = "TGI"
result = "> 100 µM"

[[record]]
compound = "Cn1c2ccccc2c2c(=S)c3ccccc3ccc21"
readout_name = "TGI"
result = "> 100 µM"

[[record]]
compound = "COc1cc(C=O)ccc1O"
readout_name = "TGI"
result = "> 100 µM"

[[record]]
compound = "CCCN(CCC)c1c([N+](=O)[O-])cc(C(=O)N(CC)CC)cc1[N+](=O)[O-]"
readout_name = "TGI"
result = "84.1 µM"

[[record]]
compound = "O=[N+]([O-])c1cccnc1N=Nc1c(O)[nH]c2ccccc12"
readout_name = "TGI"
result = "87.8 µM"

[[record]]
compound = "Cc1cccc(NC2=C(Cl)C(=O)c3nc(C)ccc3C2=O)c1"
readout_name = "TGI"
result = "4.27 µM"

[[record]]
compound = "CCOc1c(OC)cc(-c2nc3n(n2)C(=O)C(CC)S3)cc1OC (centres undefined)"
readout_name = "TGI"
result = "> 10 µM"

[[record]]
compound = "CN1Nc2ccccc2CC1=O"
readout_name = "TGI"
result = "> 100 µM"

[[record]]
compound = "O=C1C=C(c2c(O)ccc3ccccc23)c2cc(O)ccc2C1=O"
readout_name = "TGI"
result = "34.3 µM"

[[record]]
compound = "CN(C)CCN1CCC(Cc2ccccc2)CC1"
readout_name = "TGI"
result = "> 80 µM"

[[record]]
compound = "CCCCCCCC(=O)OCC1OC(n2cc(F)c(=O)[nH]c2=O)C(N)C(OC(=O)CCCCCCC)C1O (centres undefined)"
readout_name = "TGI"
result = "33.6 µM"

[[record]]
compound = "CCC(C)(C)n1c(C)nc2c1C(=O)c1ccccc1C2=O"
readout_name = "TGI"
result = "> 100 µM"

[[record]]
compound = "O=Cc1cc2c(cc1-c1cc3c(cc1C=O)OCO3)OCO2"
readout_name = "TGI"
result = "> 100 µM"

[[record]]
compound = "CCOC(=O)/C(C(C)=O)=C(\\OC(C)=O)c1ccncc1C(=O)O"
readout_name = "TGI"
result = "> 100 µM"

[[record]]
compound = "CN(Cc1cnc2nc(N)nc(N)c2n1)c1ccc(C(=O)N[C@@H](CCS(=O)(=O)O)C(=O)O)cc1"
readout_name = "TGI"
result = "> 100 µM"

[[record]]
compound = "CC(C)=CCC1=C(O)c2ccccc2C(=O)C1=O"
readout_name = "TGI"
result = "> 100 µM"

[[record]]
compound = "CCOc1ccc(OCC(=O)O)c2c1CCCC2=O"
readout_name = "TGI"
result = "> 100 µM"

[[record]]
compound = "c1ccc(C2=NOC(c3ccccc3)N2C23CC4CC(CC(C4)C2)C3)cc1 (centres undefined)"
readout_name = "TGI"
result = "> 10 µM"

[[record]]
compound = "C=C(CN(C)Cc1ccccc1)c1ccc(NC(=O)c2ccc(C(=C)CN(C)Cc3ccccc3)cc2)cc1"
readout_name = "TGI"
result = "> 100 µM"

[[record]]
compound = "CCN(CC)c1ccc(/C=C/c2ccnc3ccccc23)cc1"
readout_name = "TGI"
result = "> 100 µM"

[[record]]
compound = "Cc1cc(OP2(=O)NCc3ncccc3O2)ccc1Cl (centres undefined)"
readout_name = "TGI"
result = "> 100 µM"

